- Test system: ATP;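 further: ATP exposure 15 min at 22 °C before imaging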
- ASSAY NOTES: switch fluorescence ratio, 500 uM ATP over buffer (Cy3 cluster intensity, sum of 5 cycles each) (fold (ratio)); higher = stronger signal-on switching upon ATP binding; sequences stand for … in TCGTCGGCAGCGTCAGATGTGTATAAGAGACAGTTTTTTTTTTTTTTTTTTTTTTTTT…TC
- EXPERIMENTAL CONTEXT: aptamer strand: ATP DNA aptamer (quencher-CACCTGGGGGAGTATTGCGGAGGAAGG + anchor), 100 nM annealed; ATP concentration: 500 uM

[
  {
    "RECORD SEQUENCE": "GGGTTTGGGG",
    "ASSAYED SYSTEM": "ATP",
    "switch fluorescence ratio": 0.988
  },
  {
    "RECORD SEQUENCE": "CCGAATCGGA",
    "ASSAYED SYSTEM": "ATP",
    "switch fluorescence ratio": 1.02
  },
  {
    "RECORD SEQUENCE": "GCTTTTTTGG",
    "ASSAYED SYSTEM": "ATP",
    "switch fluorescence ratio": 0.994
  },
  {
    "RECORD SEQUENCE": "CTGGTCGCT",
    "ASSAYED SYSTEM": "ATP",
    "switch fluorescence ratio": 0.976
  },
  {
    "RECORD SEQUENCE": "GGGGGTCAGC",
    "ASSAYED SYSTEM": "ATP",
    "switch fluorescence ratio": 1
  },
  {
    "RECORD SEQUENCE": "CCAAACGATT",
    "ASSAYED SYSTEM": "ATP",
    "switch fluorescence ratio": 1.02
  },
  {
    "RECORD SEQUENCE": "GGCTAAAACT",
    "ASSAYED SYSTEM": "ATP",
    "switch fluorescence ratio": 1.01
  },
  {
    "RECORD SEQUENCE": "TTCGTGTTAT",
    "ASSAYED SYSTEM": "ATP",
    "switch fluorescence ratio": 0.995
  },
  {
    "RECORD SEQUENCE": "TTACATATGT",
    "ASSAYED SYSTEM": "ATP",
    "switch fluorescence ratio": 1.02
  },
  {
    "RECORD SEQUENCE": "TTAAAGCGGG",
    "ASSAYED SYSTEM": "ATP",
    "switch fluorescence ratio": 1.01
  },
  {
    "RECORD SEQUENCE": "GTGTTGTTTT",
    "ASSAYED SYSTEM": "ATP",
    "switch fluorescence ratio": 0.987
  },
  {
    "RECORD SEQUENCE": "TCAGGGCTAG",
    "ASSAYED SYSTEM": "ATP",
    "switch fluorescence ratio": 0.984
  },
  {
    "RECORD SEQUENCE": "GGTGATAGTT",
    "ASSAYED SYSTEM": "ATP",
    "switch fluorescence ratio": 0.994
  },
  {
    "RECORD SEQUENCE": "TTTGATCTT",
    "ASSAYED SYSTEM": "ATP",
    "switch fluorescence ratio": 0.974
  },
  {
    "RECORD SEQUENCE": "TCTCTGTCTC",
    "ASSAYED SYSTEM": "ATP",
    "switch fluorescence ratio": 1.12
  },
  {
    "RECORD SEQUENCE": "GAAGTCTGTG",
    "ASSAYED SYSTEM": "ATP",
    "switch fluorescence ratio": 1
  },
  {
    "RECORD SEQUENCE": "TTCTTGAGTA",
    "ASSAYED SYSTEM": "ATP",
    "switch fluorescence ratio": 0.984
  },
  {
    "RECORD SEQUENCE": "CAGTTCGTTT",
    "ASSAYED SYSTEM": "ATP",
    "switch fluorescence ratio": 0.985
  },
  {
    "RECORD SEQUENCE": "AGTTTGTTCT",
    "ASSAYED SYSTEM": "ATP",
    "switch fluorescence ratio": 0.999
  },
  {
    "RECORD SEQUENCE": "GGGGATAGCG",
    "ASSAYED SYSTEM": "ATP",
    "switch fluorescence ratio": 1
  },
  {
    "RECORD SEQUENCE": "ATTAGCATCG",
    "ASSAYED SYSTEM": "ATP",
    "switch fluorescence ratio": 0.981
  },
  {
    "RECORD SEQUENCE": "TAATGAGAAC",
    "ASSAYED SYSTEM": "ATP",
    "switch fluorescence ratio": 0.974
  },
  {
    "RECORD SEQUENCE": "AGGAGAATCT",
    "ASSAYED SYSTEM": "ATP",
    "switch fluorescence ratio": 1
  },
  {
    "RECORD SEQUENCE": "GCATGTACTC",
    "ASSAYED SYSTEM": "ATP",
    "switch fluorescence ratio": 3.36
  },
  {
    "RECORD SEQUENCE": "TTGTAATAGT",
    "ASSAYED SYSTEM": "ATP",
    "switch fluorescence ratio": 1.03
  },
  {
    "RECORD SEQUENCE": "GGGAAGAACT",
    "ASSAYED SYSTEM": "ATP",
    "switch fluorescence ratio": 1.06
  },
  {
    "RECORD SEQUENCE": "ATAACAGGGC",
    "ASSAYED SYSTEM": "ATP",
    "switch fluorescence ratio": 0.952
  },
  {
    "RECORD SEQUENCE": "TTGTGGCCGT",
    "ASSAYED SYSTEM": "ATP",
    "switch fluorescence ratio": 1.04
  },
  {
    "RECORD SEQUENCE": "GCCGGAAGAA",
    "ASSAYED SYSTEM": "ATP",
    "switch fluorescence ratio": 1.05
  },
  {
    "RECORD SEQUENCE": "TAGCGAGCGC",
    "ASSAYED SYSTEM": "ATP",
    "switch fluorescence ratio": 0.988
  },
  {
    "RECORD SEQUENCE": "GCACGAGGAA",
    "ASSAYED SYSTEM": "ATP",
    "switch fluorescence ratio": 1.04
  },
  {
    "RECORD SEQUENCE": "AGCAAAGTA",
    "ASSAYED SYSTEM": "ATP",
    "switch fluorescence ratio": 0.975
  },
  {
    "RECORD SEQUENCE": "AAGGATTAGC",
    "ASSAYED SYSTEM": "ATP",
    "switch fluorescence ratio": 1.04
  },
  {
    "RECORD SEQUENCE": "TAAAGTGGGC",
    "ASSAYED SYSTEM": "ATP",
    "switch fluorescence ratio": 1.04
  },
  {
    "RECORD SEQUENCE": "CCTGAATTTC",
    "ASSAYED SYSTEM": "ATP",
    "switch fluorescence ratio": 1.12
  },
  {
    "RECORD SEQUENCE": "ATACGTGGTG",
    "ASSAYED SYSTEM": "ATP",
    "switch fluorescence ratio": 1.09
  },
  {
    "RECORD SEQUENCE": "CAAATAAGTC",
    "ASSAYED SYSTEM": "ATP",
    "switch fluorescence ratio": 0.998
  },
  {
    "RECORD SEQUENCE": "ACATCGGTTC",
    "ASSAYED SYSTEM": "ATP",
    "switch fluorescence ratio": 1.02
  },
  {
    "RECORD SEQUENCE": "GGAAGGGCGA",
    "ASSAYED SYSTEM": "ATP",
    "switch fluorescence ratio": 0.957
  },
  {
    "RECORD SEQUENCE": "GATATGTGTG",
    "ASSAYED SYSTEM": "ATP",
    "switch fluorescence ratio": 0.991
  },
  {
    "RECORD SEQUENCE": "GCGTTCGGGC",
    "ASSAYED SYSTEM": "ATP",
    "switch fluorescence ratio": 1
  },
  {
    "RECORD SEQUENCE": "GTTAGTTTTT",
    "ASSAYED SYSTEM": "ATP",
    "switch fluorescence ratio": 0.986
  },
  {
    "RECORD SEQUENCE": "TGGACAGGGT",
    "ASSAYED SYSTEM": "ATP",
    "switch fluorescence ratio": 0.999
  },
  {
    "RECORD SEQUENCE": "TAAATTGATT",
    "ASSAYED SYSTEM": "ATP",
    "switch fluorescence ratio": 1.02
  },
  {
    "RECORD SEQUENCE": "TGGCGTGGGA",
    "ASSAYED SYSTEM": "ATP",
    "switch fluorescence ratio": 1
  },
  {
    "RECORD SEQUENCE": "GTAATAGTTG",
    "ASSAYED SYSTEM": "ATP",
    "switch fluorescence ratio": 1.01
  },
  {
    "RECORD SEQUENCE": "TGACCAATGT",
    "ASSAYED SYSTEM": "ATP",
    "switch fluorescence ratio": 1
  },
  {
    "RECORD SEQUENCE": "AATCGGGCTG",
    "ASSAYED SYSTEM": "ATP",
    "switch fluorescence ratio": 0.962
  },
  {
    "RECORD SEQUENCE": "GAATGTTATT",
    "ASSAYED SYSTEM": "ATP",
    "switch fluorescence ratio": 1
  },
  {
    "RECORD SEQUENCE": "TTACTTACTT",
    "ASSAYED SYSTEM": "ATP",
    "switch fluorescence ratio": 1.28
  },
  {
    "RECORD SEQUENCE": "TTCCCTAGTT",
    "ASSAYED SYSTEM": "ATP",
    "switch fluorescence ratio": 1
  },
  {
    "RECORD SEQUENCE": "CGGCAGGATG",
    "ASSAYED SYSTEM": "ATP",
    "switch fluorescence ratio": 1.01
  },
  {
    "RECORD SEQUENCE": "AACTATGCCT",
    "ASSAYED SYSTEM": "ATP",
    "switch fluorescence ratio": 1.03
  },
  {
    "RECORD SEQUENCE": "GGTATTGAGT",
    "ASSAYED SYSTEM": "ATP",
    "switch fluorescence ratio": 0.992
  },
  {
    "RECORD SEQUENCE": "TTAGTAGTGT",
    "ASSAYED SYSTEM": "ATP",
    "switch fluorescence ratio": 0.973
  },
  {
    "RECORD SEQUENCE": "ACGATTGGTG",
    "ASSAYED SYSTEM": "ATP",
    "switch fluorescence ratio": 1.07
  },
  {
    "RECORD SEQUENCE": "AAACGTTGCT",
    "ASSAYED SYSTEM": "ATP",
    "switch fluorescence ratio": 1.19
  },
  {
    "RECORD SEQUENCE": "TTAGGGTCT",
    "ASSAYED SYSTEM": "ATP",
    "switch fluorescence ratio": 1.01
  },
  {
    "RECORD SEQUENCE": "AAGGCAAGGG",
    "ASSAYED SYSTEM": "ATP",
    "switch fluorescence ratio": 1.01
  },
  {
    "RECORD SEQUENCE": "TATGAGGAGT",
    "ASSAYED SYSTEM": "ATP",
    "switch fluorescence ratio": 0.982
  },
  {
    "RECORD SEQUENCE": "GGCTGTCGGA",
    "ASSAYED SYSTEM": "ATP",
    "switch fluorescence ratio": 0.997
  },
  {
    "RECORD SEQUENCE": "TAGCAGTCAA",
    "ASSAYED SYSTEM": "ATP",
    "switch fluorescence ratio": 1.02
  },
  {
    "RECORD SEQUENCE": "TCCTATATTG",
    "ASSAYED SYSTEM": "ATP",
    "switch fluorescence ratio": 0.986
  },
  {
    "RECORD SEQUENCE": "CGTAGGCGTA",
    "ASSAYED SYSTEM": "ATP",
    "switch fluorescence ratio": 0.98
  },
  {
    "RECORD SEQUENCE": "GATTTTTTGT",
    "ASSAYED SYSTEM": "ATP",
    "switch fluorescence ratio": 0.99
  },
  {
    "RECORD SEQUENCE": "ACGTTAGGGT",
    "ASSAYED SYSTEM": "ATP",
    "switch fluorescence ratio": 1.04
  }
]
